assay: Kinetic aqueous solubility of the compound; type: physicochemical; conditions: buffer; read-out: Kinetic_solubility
REPORTED PROPERTY: solubility kinetic

>  <MOLECULE>
CC1=C(C(=O)Nc2cc(C(=O)O)ccn2)C(c2ccc(F)cc2Cl)N=C(Nc2nc3ccc(F)cc3o2)N1 (stereo not drawn)

>  <REPORTED PROPERTY>
solubility kinetic

>  <MEASURED>
40.6 µg/mL

$$$$
>  <MOLECULE>
CC1=C(C(=O)Nc2cc(C(=O)O)ccn2)[C@@H](c2ccccc2Cl)N=C(Nc2nc3ccccc3o2)N1

>  <REPORTED PROPERTY>
solubility kinetic

>  <MEASURED>
> 74 µg/mL

$$$$
>  <MOLECULE>
CC1=C(C(=O)Nc2nnc(-c3cccnc3)s2)C(c2ccccc2Cl)N=C(Nc2nc3cc(Cl)ccc3o2)N1 (stereo not drawn)

>  <REPORTED PROPERTY>
solubility kinetic

>  <MEASURED>
< 1 µg/mL

$$$$
>  <MOLECULE>
CC1=C(C(=O)Nc2cc(C(=O)O)ccn2)C(c2ccccc2Cl)N=C(Nc2nc3cccc(C)c3o2)N1 (stereo not drawn)

>  <REPORTED PROPERTY>
solubility kinetic

>  <MEASURED>
> 76 µg/mL

$$$$

The reported value for CC1=C(C(=O)Nc2cc(C(=O)O)ccc2F)C(c2ccccc2Cl)N=C(Nc2nc3ccccc3o2)N1 (stereo not drawn) in terms of solubility kinetic is 25.4 µg/mL

The reported value for COc1ccc(Cl)c(C2N=C(Nc3nc4ccccc4o3)NC(C)=C2C(=O)Nc2nncs2)c1 (stereo not drawn) in terms of solubility kinetic is < 1 µg/mL

The reported value for COC(=O)Cc1nnc(NC(=O)C2=C(C)NC(Nc3nc4ccccc4o3)=NC2c2ccccc2Cl)s1 (stereo not drawn) in terms of solubility kinetic is < 1 µg/mL

The reported value for COC(=O)c1ccnc(NC(=O)C2=C(C)NC(Nc3nc4cccc(N)c4o3)=NC2c2ccc(C)cc2Cl)c1 (stereo not drawn) in terms of solubility kinetic is < 1 µg/mL

* * *

Overview of recorded half-life for various molecules
assay: Stability of compound in rat microsomes assessed as half-life; assay type: ADME, Microsome
A number alone suffices; assume min.

Previously resolved entries follow.
>  <MOLECULE>
O=C1NCCC2=C1C(c1ccccc1Cl)N=C(Nc1nc3ccccc3o1)N2 (centres undefined)

>  <MEASURED>
27.1

$$$$
>  <MOLECULE>
CC1=C(C(=O)Nc2ccc(CN)cc2)C(c2ccccc2Cl)N=C(Nc2nc3ccccc3o2)N1 (centres undefined)

>  <MEASURED>
72.5

$$$$
>  <MOLECULE>
CC1=C(C(=O)NCc2cn(C)cn2)C(c2ccccc2Cl)N=C(Nc2nc3ccccc3o2)N1 (racemic)

>  <MEASURED>
14.6

$$$$

The reported value for CC1=C(C(=O)Nc2ccc(CN3CCOCC3)cc2)C(c2ccccc2Cl)N=C(Nc2nc3ccccc3o2)N1 (centres undefined) in terms of half-life is 22.3

* * *

test: Kinetic aqueous solubility of the compound; type: physicochemical; settings: buffer; read-out: Kinetic_solubility
REPORTED PROPERTY: solubility kinetic (mg/mL)
A number alone suffices; assume mg/mL.

Previously resolved entries follow.
>  <MOLECULE>
CC1=C(C(=O)NCc2cccc(C(=O)O)c2)C(c2ccccc2Cl)N=C(Nc2nc3ccccc3o2)N1 (centres undefined)

>  <MEASURED>
0.0606

$$$$
>  <MOLECULE>
O=C1CC(C(=O)N2CCNCC2)CC2=C1C(c1ccccc1Cl)N=C(Nc1nc3ccccc3o1)N2 (centres undefined)

>  <MEASURED>
0.0239

$$$$
>  <MOLECULE>
CC1=C(C(=O)Nc2nncs2)C2(Cc3ccccc32)N=C(Nc2nc3ccccc3o2)N1 (centres undefined)

>  <MEASURED>
0.0509

$$$$
>  <MOLECULE>
CC1=C(C(=O)Nc2nncs2)C(c2c(Br)cnn2C)N=C(Nc2nc3ccccc3o2)N1 (centres undefined)

>  <MEASURED>
0.0387

$$$$

Note: attention shifts to another entry.
The reported value for CC1=C(C(=O)NCc2nccn2C)C(c2ccccc2Cl)N=C(Nc2nc3ccccc3o2)N1 (centres undefined) in terms of solubility kinetic is 0.023

* * *

Overview of recorded inhibition for various compounds
species on record: Homo sapiens; experiment: Inhibition of human GALK1 K252A/E253A double mutant relative to control; design: concentration or dose not given beside the values; details: concentration not given here
A number alone suffices; assume %.

>  <COMPOUND>
CC1=C(C(=O)Nc2cc(C(=O)O)ccn2)C(c2ccccc2Cl)N=C(Nc2nc3c(F)cccc3o2)N1 (configuration not stated)

>  <VALUE UNIT>
%

>  <MEASURED>
94

$$$$

The reported value for COc1ccc2oc(NC3=NC(c4ccccc4Cl)C(C(=O)Nc4cc(C(=O)O)ccn4)=C(C)N3)nc2c1 (configuration not stated) in terms of inhibition is 100

The reported value for CC1=C(C(=O)Nc2cc(C(=O)O)ccn2)C(c2ccccc2Cl)N=C(Nc2nc3ccc(Cl)cc3o2)N1 (configuration not stated) in terms of inhibition is 100

The reported value for CC1=C(C(=O)Nc2cc(C(=O)O)ccn2)C(c2ccccc2Cl)N=C(Nc2nc3cc(N)ccc3o2)N1 (configuration not stated) in terms of inhibition is 100

The reported value for CC1=C(C(=O)Nc2cc(C(=O)O)ccn2)C(c2ccccc2Br)N=C(Nc2nc3ccc(F)cc3o2)N1 (configuration not stated) in terms of inhibition is 100

The reported value for CC1=C(C(=O)Nc2cc(C(=O)O)ccn2)C(c2ccccc2Cl)N=C(Nc2nc3cccc(OC(F)(F)F)c3o2)N1 (configuration not stated) in terms of inhibition is 88

The reported value for CC1=C(C(=O)Nc2nnc(C)s2)C(c2ccccc2Cl)N=C(Nc2nc3ccccc3o2)N1 (configuration not stated) in terms of inhibition is 95

The reported value for CC1=C(C(=O)Nc2cc(C(=O)O)ccn2)C(c2cccc(Cl)c2Cl)N=C(Nc2nc3ccc(F)cc3o2)N1 (configuration not stated) in terms of inhibition is 100

The reported value for CC1=C(C(=O)Nc2nncs2)C(c2ccccc2Cl)N=C(Nc2nc3ccccc3o2)N1 (configuration not stated) in terms of inhibition is 96

* * *

experiment: Stability of compound in rat microsomes assessed as half-life; format: ADME, Microsome
REPORTED PROPERTY: log10(half-life) (log10 of the value in min)
Field: value | Transform: log10 | Quantity: half-life | Unit: min

>  <MOLECULE>
CC1=C(C(=O)Nc2cc(B(O)O)ccn2)C(c2ccc(C)cc2Cl)N=C(Nc2nc3ccc(F)cc3o2)N1 (stereo not drawn)

>  <REPORTED PROPERTY>
log10(half-life)

>  <MEASURED>
1.15

$$$$

The reported value for CC1=C(C(=O)NCc2c(C)nn(C)c2C)C(c2ccc(C)cc2Cl)N=C(Nc2nc3ccc(F)cc3o2)N1 (stereo not drawn) in terms of log10(half-life) is 0.42

The reported value for CCn1cc(C(C)NC(=O)C2=C(C)NC(Nc3nc4cccc(N)c4o3)=NC2c2ccc(C)cc2Cl)cn1 (stereo not drawn) in terms of log10(half-life) is 1.25

The reported value for CC1=C(C(=O)NCc2ccccc2O)C(c2ccccc2Cl)N=C(Nc2nc3ccccc3o2)N1 (stereo not drawn) in terms of log10(half-life) is 0.72

The reported value for COC(=O)c1ccnc(NC(=O)C2=C(C)NC(Nc3nc4ccc(F)cc4o3)=N[C@H]2c2ccccc2Cl)c1 in terms of log10(half-life) is 1.49

* * *

assay: Stability of compound in rat microsomes assessed as half-life; assay type: ADME, Microsome
REPORTED PROPERTY: half-life

Previously resolved entries follow.
>  <COMPOUND>
CC1=C(C(=O)Nc2cc(C(=O)O)ccn2)C(c2ccc(-n3ccnc3)cc2Cl)N=C(Nc2nc3ccc(F)cc3o2)N1 (stereo not drawn)

>  <MEASURED>
> 30 min

$$$$
>  <COMPOUND>
CC1=C(C(=O)Nc2cc(C(=O)O)ccn2)C(c2ccccc2Cl)N=C(Nc2nc3cccc(C)c3o2)N1 (stereo not drawn)

>  <MEASURED>
> 30 min

$$$$
>  <COMPOUND>
O=C(Nc1nncs1)C1=C(C(F)(F)F)NC(Nc2nc3ccccc3o2)=NC1c1ccccc1Cl (stereo not drawn)

>  <MEASURED>
> 30 min

$$$$
>  <COMPOUND>
CNC(=O)c1ccnc(NC(=O)C2=C(C)NC(Nc3nc4ccccc4o3)=NC2c2ccccc2Cl)c1 (stereo not drawn)

>  <MEASURED>
> 30 min

$$$$
>  <COMPOUND>
CC1=C(C(=O)Nc2ccc(Cl)cc2)C(c2ccccc2Cl)N=C(Nc2nc3ccccc3o2)N1 (stereo not drawn)

>  <MEASURED>
> 30 min

$$$$
>  <COMPOUND>
CCn1nc(C)c(CNC(=O)C2=C(C)NC(Nc3nc4ccc(F)c(N)c4o3)=NC2c2ccc(C)cc2Cl)c1F (stereo not drawn)

>  <MEASURED>
3.55 min

$$$$
>  <COMPOUND>
COc1ccc2nc(NC3=NC(c4ccccc4Cl)C(C(=O)Nc4nnc(-c5cccnc5)s4)=C(C)N3)oc2c1 (stereo not drawn)

>  <MEASURED>
> 30 min

$$$$

Note: attention shifts to another entry.
The reported value for CC1=C(C(=O)Nc2cncc(C(=O)O)c2)C(c2ccccc2Cl)N=C(Nc2nc3ccccc3o2)N1 (stereo not drawn) in terms of half-life is > 30 min

All values here come from ChEMBL document CHEMBL5050861.
